Test system: SR leukemia
Assay: NCI-60 one-dose screen, 48 h
Conditions: 10 µM
The panel holds about 83,000 compounds, 20% with a hit somewhere; the sample as a whole holds those more often. Active and inactive are the calls of the source. How the source made its calls: active means growth percent below 10; inactive means the rest.
Allowed answers: active, inactive

Solved cases (6 shown):
>>> assigned_label("CCN1CCCC1CNC(=O)c1ncc(-c2ccc(C(F)(F)F)cc2)c(NC2CCCCCC2)n1 (centres undefined)")
"active"
>>> assigned_label("C=C1c2c(C)nn(-c3ccc(OC)cc3)c2N(C)C23C[C@@H]1C1(C)c4c(C)nn(-c5ccc(OC)cc5)c4N(C)C(C)(C[C@H]12)C3 (some centres undefined)")
"active"
>>> assigned_label("COc1ccc(/C(=C2\\O[C@@H]([C@H]3COC(C)(C)O3)[C@H]3OC(C)(C)O[C@@H]23)c2cc(OC)c(OC)c(OC)c2)cc1O")
"inactive"
>>> assigned_label("CN(C)CCN1C(=O)c2cccc3cc(N)cc(c23)C1=O")
"active"
>>> assigned_label("O=C1/C(=C\\c2ccc(F)cc2)CN(C(=O)c2ccccc2F)C/C1=C\\c1ccc(F)cc1")
"active"
>>> assigned_label("O=C1/C(=C\\c2ccc(Cl)cc2)CN(C(=O)c2ccccc2)C/C1=C\\c1ccc(Cl)cc1")
"active"

// outcome(item) with item = O=C(CNC(=O)OCc1ccccc1)NCC(=O)Oc1ccc([N+](=O)[O-])cc1
inactive

Name the outcome recorded for Cc1ccc(NC(=O)Nc2c(Cl)cccc2Cl)cn1 in the assay.
inactive

State the result this test recorded for N#Cc1ncc(Br)c(NC2CCCCCC2)n1 .
inactive

====

Provide the recorded growth for the entries that follow.
System: SK-MEL-5 melanoma
Assay: NCI-60 one-dose screen, 48 h (100 = growth as untreated, 0 = no growth, -100 = all killed)
Settings: 10 µM
The panel holds about 83,000 compounds, 20% with a hit somewhere; the sample as a whole holds those more often.
One number for each entry, in %.

Reference set, count: 3
>>> reported_value("COc1ccc(-c2ccc3cc(C(=O)Nc4ccc(O)c(C(=O)/C=C/c5cc(OC)c(OC)c(OC)c5)c4)ccc3c2)cc1")
72.6
>>> reported_value("O=C(Nc1nc2ccc(F)cc2s1)c1cc(-c2ccc(F)cc2)n2nc(-c3ccccc3)cc2n1")
68.3
>>> reported_value("O=C1/C(=C\\c2ccccc2)CN(C(=O)c2ccccc2F)C/C1=C\\c1ccccc1")
-48.6

Value sought for every listed compound: growth.
1. O=C(N/N=C/c1ccccc1O)C(O)(c1ccccc1)c1ccccc1
2. CCc1ccc2c(c1)N(CCO)C1=C(C(=O)OC1)C2c1cc(OC)c(OC)c(OC)c1 (stereo not given)
3. COc1cc(/C=N/NC(=O)c2ccccc2Nc2cccc(C(F)(F)F)c2)cc(OC)c1OC
4. COc1ccccc1CNCCN1C(=O)c2ccc3c4c(ccc(c24)C1=O)C(=O)N(CCNCc1ccccc1OC)C3=O
5. CCOC(=O)N1C=CC2C=CC1C1C=CC=CC2N1C(=O)OCC (stereo not given)
6. O=C(Nc1ccc(Cl)c([N+](=O)[O-])c1)Nc1nc2ccccc2s1
7. CCOC(=O)CCC(NC(=O)c1ccc(N)cc1)C(=O)OCC (stereo not given)

1. 62.1
2. -14.5
3. 29.2
4. -100
5. 84.1
6. 74.3
7. 105

====

Test system: OVCAR-4 ovarian
Assay: NCI-60 one-dose screen, 48 h (100 = growth as untreated, 0 = no growth, -100 = all killed)
Conditions: 10 µM
Description: Growth inhibition of the OVCAR-4 human tumor cell line is measured as a screen for anti-cancer activity. Cells are grown in 96 well plates and exposed to the test compound for 48 hours. Compounds are tested at a single concentration, which is 10^-5 M for most compounds. The reported endpoint is percent growth (GI% or GIPRCNT), where numbers from 0 - 100% represent growth inhibition, and numbers from -100% - 0 represent cell death. For example, a value of 40 represents 60% growth inhibition. […]
Compounds without any hit were thinned out: in the full panel of roughly 83,000, 20% have a hit. Activity calls are given as the source filed them. The calls were made as follows: active = growth percent below 10; inactive = the rest.
measurement_name: growth

>>> reported_value("O=C1/C(=C\\c2ccc(F)cc2)CN(C(=O)c2ccc([N+](=O)[O-])cc2)C/C1=C\\c1ccc(F)cc1")
"50.5% (inactive)"
>>> reported_value("CCOC1(OCC)OC(c2ccccc2)=C(C#N)C(/C=C\\c2ccccc2)C1(OCC)OCC (stereo not drawn)")
"79.6% (inactive)"

Now look at this one.
Note to self: growth recorded for CN1CCCNc2c(c(=O)c2=O)NCCCN(C)CCCNc2c(c(=O)c2=O)NCCCN(C)CCCNc2c(c(=O)c2=O)NCCCN(C)CCCNc2c(c(=O)c2=O)NCCCN(C)CCCNc2c(c(=O)c2=O)NCCCN(C)CCCNc2c(c(=O)c2=O)NCCCN(C)CCCNc2c(c(=O)c2=O)NCCC1 was 66.5% (inactive)

====

Test system: NCI-H522 lung
Assay: NCI-60 one-dose screen, 48 h (100 = growth as untreated, 0 = no growth, -100 = all killed)
Conditions: 10 µM
Compounds without any hit were thinned out: in the full panel of roughly 83,000, 20% have a hit.
measurement_name: growth (%)
Numbers only, in %.

For orientation, consider the following solved cases.
>>> reported_value("Cc1cc(C)c(NC(=O)c2sc3nc4c(cc3c2N)C(=O)CCC4)c(C)c1")
-14.7
>>> reported_value("COc1ccc(/C=C2/CN(CCC#N)C/C(=C\\c3ccc(OC)cc3)C2=O)cc1")
-28
>>> reported_value("Cc1cccc(C)c1NC(=O)c1sc2nc3c(cc2c1N)C(=O)CCC3")
61.7
>>> reported_value("COc1cc(Cl)cc(-c2nn(-c3cccc(NC(=O)c4ccc(Cl)c(Cl)c4)c3)cc2-c2ccncc2)c1")
53.7
>>> reported_value("COc1ccc(-c2ccc(-c3ccc(C(=N)N)cn3)o2)cc1")
76.6
>>> reported_value("CCCCOc1ccc(NC(=O)Nc2nnc(C)s2)cc1")
-36.8

Give growth for each of the items listed below.
1. O=C1CC[C@@H]2CCCC[C@@H]2C1
2. Nc1c(C(=O)Nc2ccccc2)sc2nc3c(cc12)C(O)CCC3 (stereo not drawn)
3. Cc1cc(=O)n2nnc3c4ccccc4ccc3n12

[90.3, 7.09, 87.9]

====

Tested on: U251 CNS
Experiment: NCI-60 one-dose screen, 48 h (100 = growth as untreated, 0 = no growth, -100 = all killed)
Conditions: 10 µM
The panel holds about 83,000 compounds, 20% with a hit somewhere; the sample as a whole holds those more often.
Binary call on growth: Yes from 70% upward, No beneath that.

>>> assigned_label("COC(=O)c1ccc(=O)oc1")
"Yes"
>>> assigned_label("O=C(C[P+](c1ccccc1)(c1ccccc1)c1ccccc1)C[P+](c1ccccc1)(c1ccccc1)c1ccccc1")
"No"
>>> assigned_label("O=C(NC(Cc1ccc(O)cc1)C(=O)N=Nc1c(O)[nH]c2ccccc12)c1ccccc1 (configuration not stated)")
"Yes"

Form field: growth at least 70%? Entry: CSC1=NCCCC1
Yes

Threshold query (growth >= 70%) on O=C(Nc1cccc(-n2cc(-c3ccncc3)c(-c3cc(O)cc(Cl)c3)n2)c1)c1ccc(N2CCOCC2)c(C(F)(F)F)c1
No

Could you verify whether the entry COc1cc(/C=C2\Oc3cc(OCC(=O)c4ccccc4)ccc3C2=O)cc(OC)c1OC shows growth of no less than 70%?
Yes

====

System: MCF7 breast
Experiment: NCI-60 one-dose screen, 48 h (100 = growth as untreated, 0 = no growth, -100 = all killed)
Settings: 10 µM
About 83,000 compounds went through this panel and 20% of them were active in at least one assay; those are over-represented in the sample as a whole.
I'd appreciate it if you marked entries criterion met when growth is lower than 30% and criterion not met when it is not.

>>> assigned_label("N=C(N)c1ccc(-c2ccc(-c3cccs3)o2)cc1")
"criterion met"
>>> assigned_label("CCn1cc(C(=O)O)c(=O)c2cnc(N3CCCC3)nc21")
"criterion not met"
>>> assigned_label("CC(=O)c1cc(Br)ccc1O")
"criterion not met"
>>> assigned_label("CCOC(=O)CCC(NC(=O)c1ccc(N)cc1)C(=O)OCC (stereo unspecified)")
"criterion not met"

# strict comparison: is reported growth < 30%? input = COc1ccc(S(=O)(=O)NCCCNc2nccc(-c3c(-c4ccc(F)cc4)nc4sccn34)n2)cc1
criterion not met

API: query returns whether the compound falls strictly under 30% in growth. Query: Cc1ccc(C)c(C(O)(c2cc(C)ccc2C)C2(O)CCCCC2)c1
criterion not met

Consider the compound Cc1ccc(N=Nc2c(N)nc(N)[nH]c2=O)cc1C . Is its growth strictly less than 30%?
criterion not met

Does the reported growth of the following compound sit strictly below 30%? COc1ccc(-c2nn(-c3cccc(NC(=O)Nc4cccc(C(F)(F)F)c4)c3)cc2-c2ccncc2)cc1Cl
criterion met

Field: below-cutoff. Rule: recorded growth strictly less than 30%. Subject: COc1ccc(Oc2nc(NC3CCCC3)nc(Sc3ccc(OC)cc3)n2)cc1
criterion not met

Lab note: growth threshold 30%. Does this compound come in strictly under it? CC(C)=CCc1ccc(O)c(=O)cc1C(C)C
criterion met

Please state whether growth is below 30% for CCN(CC)CCCC(C)Nc1ccc2ccc(Cl)cc2n1 (stereo unspecified)
criterion not met

Does the reported growth of COc1cc(/C(=C2/O[C@@H]([C@H]3COC(C)(C)O3)[C@H]3OC(C)(C)O[C@@H]23)c2ccc3ccccc3c2)cc(OC)c1OC stay below 30%?
criterion met

Here's an entry: O=C(Nc1cccc(-n2cc(-c3ccncc3)c(-c3ccc(O)c(Cl)c3)n2)c1)c1ccc(Cl)c(Cl)c1 . Is its growth below 30%?
criterion not met

Strictly below 30%: is that where growth of CCCCC/C=C/C(=O)CCc1ccc(O)c(OC)c1 sits?
criterion met

Would you kindly verify if growth of COc1ccc(-c2cc(/C=C3\C(=O)Nc4ccc(Cl)cc43)[nH]n2)cc1OC is strictly less than 30%?
criterion not met

Bench note: check whether Cc1ccc2oc3nc(C)c(C(=O)NCc4ccccc4)cc3c(=O)c2c1 shows growth below 30%
criterion not met
